system: Mitogen-activated protein kinase 8 (Homo sapiens, UniProt P45983)
Sequence (P45983 whole entry): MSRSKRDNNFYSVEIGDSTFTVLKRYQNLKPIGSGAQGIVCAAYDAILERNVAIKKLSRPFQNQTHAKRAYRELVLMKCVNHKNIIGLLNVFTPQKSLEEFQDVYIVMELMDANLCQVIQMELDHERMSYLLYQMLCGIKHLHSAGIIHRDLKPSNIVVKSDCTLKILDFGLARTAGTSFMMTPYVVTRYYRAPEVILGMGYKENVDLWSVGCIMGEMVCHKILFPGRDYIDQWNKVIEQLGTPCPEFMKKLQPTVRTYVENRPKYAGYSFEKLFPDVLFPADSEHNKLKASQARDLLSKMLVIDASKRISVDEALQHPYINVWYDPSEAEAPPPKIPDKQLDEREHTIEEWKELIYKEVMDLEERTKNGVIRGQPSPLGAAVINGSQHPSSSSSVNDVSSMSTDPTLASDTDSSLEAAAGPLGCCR
protocol-description: Inhibition of JNK1 (unknown origin) Lys2 labeling site by KiNativ Profiling analysis
pIC50: −log10 of the molar value.
recorded-endpoint: pIC50

Qu. Give pIC50 only, for `CCN1CCN(Cc2ccc(NC(=O)c3ccc(C)c(/C=C/c4cnc5[nH]ccc5c4OC)c3)cc2C(F)(F)F)CC1` , using Mitogen-activated protein kinase 8 (Homo sapiens, UniProt P45983) data.
Ans. < 5.00

Qu. Give pIC50 only, for `CCN1CCN(Cc2ccc(NC(=O)c3ccc(C)c(Oc4ccnc5[nH]ccc45)c3)cc2C(F)(F)F)CC1` , using Mitogen-activated protein kinase 8 (Homo sapiens, UniProt P45983) data.
Ans. < 5.00

----------
system: Tyrosine-protein kinase CSK (Homo sapiens)
protocol-description: Inhibition of CSK ACT labeling site in human Huh-7 cell lysate at 1 uM by KiNativ Profiling analysis relative to control
Format: subcellular
Sequence (P41240 2-450 limits assumed): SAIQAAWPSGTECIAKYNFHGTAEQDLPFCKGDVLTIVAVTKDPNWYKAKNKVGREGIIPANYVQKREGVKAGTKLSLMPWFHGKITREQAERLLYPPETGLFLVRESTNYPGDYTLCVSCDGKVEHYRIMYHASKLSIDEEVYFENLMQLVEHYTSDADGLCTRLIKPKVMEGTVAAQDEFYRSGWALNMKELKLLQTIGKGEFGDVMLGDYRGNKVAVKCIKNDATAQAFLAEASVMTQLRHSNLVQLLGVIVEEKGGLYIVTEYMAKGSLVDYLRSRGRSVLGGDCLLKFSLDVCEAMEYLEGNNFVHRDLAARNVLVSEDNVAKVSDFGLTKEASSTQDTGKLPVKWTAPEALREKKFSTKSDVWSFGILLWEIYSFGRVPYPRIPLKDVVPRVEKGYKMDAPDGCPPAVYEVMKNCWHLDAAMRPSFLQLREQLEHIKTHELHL
Exercise: state measured inhibition for each of the compounds provided.
Hi! Could you send only the number? It should be in %, unit omitted.

Qu. Give inhibition only, for `CCN1CCN(Cc2ccc(NC(=O)c3ccc(C)c(OCc4cnc5[nH]ccc5c4OC)c3)cc2C(F)(F)F)CC1` , using Tyrosine-protein kinase CSK (Homo sapiens) data.
Ans. 84

Qu. Give inhibition only, for `COc1c(/C=C/c2cc(C(=O)Nc3cccc(C(C)(C)C#N)c3)ccc2C)cnc2[nH]ccc12` , using Tyrosine-protein kinase CSK (Homo sapiens) data.
Ans. 75.7

Qu. Give inhibition only, for COc1c(/C=C/c2cc(C(=O)Nc3ccc(CN4CCC(N(C)C)C4)c(C(F)(F)F)c3)ccc2C)cnc2[nH]ccc12 (centres undefined) , using Tyrosine-protein kinase CSK (Homo sapiens) data.
Ans. 75.6

Qu. Give inhibition only, for `CCN1CCN(Cc2ccc(NC(=O)c3ccc(C)c(CCc4cnc5[nH]ccc5c4OC)c3)cc2C(F)(F)F)CC1` , using Tyrosine-protein kinase CSK (Homo sapiens) data.
Ans. 89.9

----------
system: Mitogen-activated protein kinase 14 (Homo sapiens, UniProt Q16539)
Sequence (Q16539 whole entry): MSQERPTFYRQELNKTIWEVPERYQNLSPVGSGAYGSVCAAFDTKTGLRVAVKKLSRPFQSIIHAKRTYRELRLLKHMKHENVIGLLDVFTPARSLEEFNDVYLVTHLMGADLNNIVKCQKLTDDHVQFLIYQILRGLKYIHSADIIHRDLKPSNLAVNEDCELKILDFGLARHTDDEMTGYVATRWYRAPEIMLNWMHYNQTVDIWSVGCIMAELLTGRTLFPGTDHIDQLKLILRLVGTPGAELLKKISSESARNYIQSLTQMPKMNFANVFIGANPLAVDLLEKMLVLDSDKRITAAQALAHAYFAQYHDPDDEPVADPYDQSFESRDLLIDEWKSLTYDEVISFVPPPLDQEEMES
protocol-description: Inhibition of p38 alpha (unknown origin) by KiNativ Profiling analysis
recorded-endpoint: IC50 (nM)
Hi! Could you send only the number? It should be in nM, unit omitted.

Qu. Name the recorded IC50 of the compound listed here: `CCN1CCN(Cc2ccc(NC(=O)c3ccc(C)c(Oc4cc(NC)ncn4)c3)cc2C(F)(F)F)CC1`
Ans. 250

Qu. Name the recorded IC50 of the compound listed here: `CCN1CCN(Cc2ccc(NC(=O)c3ccc(C)c(Oc4ccnc5[nH]ccc45)c3)cc2C(F)(F)F)CC1`
Ans. 102

Qu. Name the recorded IC50 of the compound listed here: `CCN1CCN(Cc2ccc(NC(=O)c3ccc(C)c(Oc4ccnc(C(=O)NC)c4)c3)cc2C(F)(F)F)CC1`
Ans. 69.6

Qu. Name the recorded IC50 of the compound listed here: `CCN1CCN(Cc2ccc(NC(=O)c3ccc(C)c(CCc4cnc5[nH]ccc5c4OC)c3)cc2C(F)(F)F)CC1`
Ans. 70.1

----------
Exercise: state measured Cmax for each of the molecules provided.
protocol-description: Cmax in Swiss albino mouse at 10 mg/kg, po measured upto 24 hrs by LC/MS/MS analysis
Type: ADME, organism-based
assay-context: in vivo

Qu. Name the recorded Cmax of the molecule listed here: `CCN1CCN(Cc2ccc(NC(=O)c3ccc(C)c(/C=C/c4cnc5[nH]ccc5c4OC)c3)cc2C(F)(F)F)CC1`
Ans. 163 ng/mL

Qu. Name the recorded Cmax of the molecule listed here: `CCN1CCN(Cc2ccc(NC(=O)c3ccc(C)c(Oc4ncnc5[nH]ccc45)c3)cc2C(F)(F)F)CC1`
Ans. 134 ng/mL

Qu. Name the recorded Cmax of the molecule listed here: `CCN1CCN(Cc2ccc(NC(=O)c3ccc(C)c(Oc4ncnc5[nH]c(C)cc45)c3)cc2C(F)(F)F)CC1`
Ans. 233 ng/mL

Qu. Name the recorded Cmax of the molecule listed here: `CCN1CCN(Cc2ccc(NC(=O)c3ccc(C)c(Oc4ncnc5[nH]ncc45)c3)cc2C(F)(F)F)CC1`
Ans. 61.3 ng/mL

Qu. Name the recorded Cmax of the molecule listed here: `CCN1CCN(Cc2ccc(NC(=O)c3ccc(C)c(Oc4ccnc5[nH]ccc45)c3)cc2C(F)(F)F)CC1`
Ans. 316 ng/mL

----------
protocol-description: AUC last in Swiss albino mouse at 1 mg/kg, iv measured upto 24 hrs by LC/MS/MS analysis
Assay type: ADME, organism-based
assay-context: in vivo
recorded-endpoint: AUClast (ng·h/mL)
Hi! Could you send only the number? It should be in ng·h/mL, unit omitted.

Qu. Name the recorded AUClast of the compound listed here: `CCN1CCN(Cc2ccc(NC(=O)c3ccc(C)c(Oc4ccnc5[nH]ccc45)c3)cc2C(F)(F)F)CC1`
Ans. 195

Qu. Name the recorded AUClast of the compound listed here: `CCN1CCN(Cc2ccc(NC(=O)c3ccc(C)c(Oc4ncnc5[nH]ccc45)c3)cc2C(F)(F)F)CC1`
Ans. 236.6

Qu. Name the recorded AUClast of the compound listed here: `CCN1CCN(Cc2ccc(NC(=O)c3ccc(C)c(Oc4ncnc5[nH]ncc45)c3)cc2C(F)(F)F)CC1`
Ans. 167.9

Qu. Name the recorded AUClast of the compound listed here: `CCN1CCN(Cc2ccc(NC(=O)c3ccc(C)c(Oc4ncnc5[nH]c(C)cc45)c3)cc2C(F)(F)F)CC1`
Ans. 554

Qu. Name the recorded AUClast of the compound listed here: `CCN1CCN(Cc2ccc(NC(=O)c3ccc(C)c(/C=C/c4cnc5[nH]ccc5c4OC)c3)cc2C(F)(F)F)CC1`
Ans. 403

----------
system: Tyrosine-protein kinase CSK (Homo sapiens)
protocol-description: Inhibition of CSK (unknown origin) ACT labeling site by KiNativ Profiling analysis
Sequence (P41240 whole entry): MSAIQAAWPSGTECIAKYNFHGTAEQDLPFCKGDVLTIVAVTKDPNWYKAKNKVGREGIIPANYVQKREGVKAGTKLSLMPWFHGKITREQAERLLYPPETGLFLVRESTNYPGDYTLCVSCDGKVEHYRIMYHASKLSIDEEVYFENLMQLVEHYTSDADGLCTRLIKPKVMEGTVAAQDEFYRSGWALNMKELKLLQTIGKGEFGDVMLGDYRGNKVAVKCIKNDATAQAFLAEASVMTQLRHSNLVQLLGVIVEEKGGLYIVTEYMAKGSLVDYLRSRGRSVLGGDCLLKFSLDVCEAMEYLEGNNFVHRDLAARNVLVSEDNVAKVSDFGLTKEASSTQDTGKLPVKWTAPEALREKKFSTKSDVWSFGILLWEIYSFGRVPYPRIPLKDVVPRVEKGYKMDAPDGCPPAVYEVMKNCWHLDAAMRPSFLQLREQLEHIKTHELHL
Exercise: state measured pIC50 for each of the compounds provided.
Field pIC50 (float): negative decimal logarithm of the concentration in molar.

Qu. Name the recorded pIC50 of the compound listed here: COc1c(/C=C/c2cc(C(=O)Nc3ccc(CN4CCC(N(C)C)C4)c(C(F)(F)F)c3)ccc2C)cnc2[nH]ccc12 (stereo unspecified)
Ans. 7.60

Qu. Name the recorded pIC50 of the compound listed here: `CCN1CCN(Cc2ccc(NC(=O)c3ccc(C)c(/C=C/c4cnc5[nH]ccc5c4OC)c3)cc2C(F)(F)F)CC1`
Ans. 7.09

Qu. Name the recorded pIC50 of the compound listed here: `COc1c(/C=C/c2cc(C(=O)Nc3cccc(C(C)(C)C#N)c3)ccc2C)cnc2[nH]ccc12`
Ans. 7.60

Qu. Name the recorded pIC50 of the compound listed here: `CCN1CCN(Cc2ccc(NC(=O)c3ccc(C)c(CCc4cnc5[nH]ccc5c4OC)c3)cc2C(F)(F)F)CC1`
Ans. 7.90

Qu. Name the recorded pIC50 of the compound listed here: `CCN1CCN(Cc2ccc(NC(=O)c3ccc(C)c(Oc4ccnc5[nH]ccc45)c3)cc2C(F)(F)F)CC1`
Ans. 7.25

Qu. Name the recorded pIC50 of the compound listed here: `CCN1CCN(Cc2ccc(NC(=O)c3ccc(C)c(OCc4cnc5[nH]ccc5c4OC)c3)cc2C(F)(F)F)CC1`
Ans. 7.23

----------
Exercise: state measured inhibition for each of the molecules provided.
system: Mitogen-activated protein kinase 14 (Homo sapiens, UniProt Q16539)
protocol-description: Inhibition of p38 alpha in human Huh-7 cell lysate at 1 uM by KiNativ Profiling analysis relative to control
Type: subcellular
Hi! Could you send only the number? It should be in %, unit omitted.

Qu. Name the recorded inhibition of the molecule listed here: `CCN1CCN(Cc2ccc(NC(=O)c3ccc(C)c(Oc4ncnc5[nH]ncc45)c3)cc2C(F)(F)F)CC1`
Ans. 96.6

Qu. Name the recorded inhibition of the molecule listed here: `CCN1CCN(Cc2ccc(NC(=O)c3ccc(C)c(Oc4ncnc5[nH]ccc45)c3)cc2C(F)(F)F)CC1`
Ans. 85.2

Qu. Name the recorded inhibition of the molecule listed here: `CCN1CCN(Cc2ccc(NC(=O)c3ccc(C)c(Oc4ccnc(NC)n4)c3)cc2C(F)(F)F)CC1`
Ans. 95.4

Qu. Name the recorded inhibition of the molecule listed here: `CCN1CCN(Cc2ccc(NC(=O)c3ccc(C)c(Oc4ncnc5[nH]c(C)cc45)c3)cc2C(F)(F)F)CC1`
Ans. 82.8

Qu. Name the recorded inhibition of the molecule listed here: `CCN1CCN(Cc2ccc(NC(=O)c3cccc(Oc4ccnc5[nH]ccc45)c3)cc2C(F)(F)F)CC1`
Ans. 85.8

Qu. Name the recorded inhibition of the molecule listed here: `COc1c(/C=C/c2cc(C(=O)Nc3ccc(OC4CCN(C)CC4)c(C(F)(F)F)c3)ccc2C)cnc2[nH]ccc12`
Ans. 90.5

Qu. Name the recorded inhibition of the molecule listed here: COc1c(/C=C/c2cc(C(=O)Nc3ccc(CN4CCC(N(C)C)C4)c(C(F)(F)F)c3)ccc2C)cnc2[nH]ccc12 (stereo unspecified)
Ans. 85

Qu. Name the recorded inhibition of the molecule listed here: `CCN1CCN(Cc2ccc(NC(=O)c3ccc(C)c(Oc4ccnc(C(=O)NC)c4)c3)cc2C(F)(F)F)CC1`
Ans. 93.1

Qu. Name the recorded inhibition of the molecule listed here: `COc1c(CCc2cc(C(=O)Nc3cc(-n4cnc(C)c4)cc(C(F)(F)F)c3)ccc2C)cnc2[nH]ccc12`
Ans. 98.8

Qu. Name the recorded inhibition of the molecule listed here: `CNc1cc(Oc2cc(C(=O)Nc3cc(-n4cnc(C)c4)cc(C(F)(F)F)c3)ccc2C)ncn1`
Ans. 13.4

Qu. Name the recorded inhibition of the molecule listed here: `CCN1CCN(Cc2ccc(NC(=O)c3ccc(C)c(CCc4cnc5[nH]ccc5c4OC)c3)cc2C(F)(F)F)CC1`
Ans. 91.8

Qu. Name the recorded inhibition of the molecule listed here: `CCN1CCN(Cc2ccc(C(=O)Nc3cccc(CCc4cnc5[nH]ccc5c4OC)c3)cc2C(F)(F)F)CC1`
Ans. 95.9

Qu. Name the recorded inhibition of the molecule listed here: `CCN1CCN(Cc2ccc(C(=O)Nc3ccc(C)c(Oc4ccnc5[nH]ccc45)c3)cc2C(F)(F)F)CC1`
Ans. 88.4

Qu. Name the recorded inhibition of the molecule listed here: `CNc1cc(Oc2cc(C(=O)Nc3cc(N4CCN(C)CC4)cc(C(F)(F)F)c3)ccc2C)ncn1`
Ans. 27.1

Qu. Name the recorded inhibition of the molecule listed here: `CCN1CCN(Cc2ccc(NC(=O)c3ccc(C)c(Oc4cc(NC)ncn4)c3)cc2C(F)(F)F)CC1`
Ans. 98.6

Qu. Name the recorded inhibition of the molecule listed here: `CCN1CCN(Cc2ccc(NC(=O)c3ccc(C)c(OCc4cnc5[nH]ccc5c4OC)c3)cc2C(F)(F)F)CC1`
Ans. 97.3
